Source of measurements: PubChem BioAssay (NCI)

Entries and their TGI values follow.
- System: EKVX NSCLC
- Method summary: NCI tumour cell line growth inhibition, 384-well format
Property label: TGI

compound="CC(=O)C1(O)Cc2c(O)c3c(c(O)c2C(OC2CC(N)C(O)C(C)O2)C1)C(=O)c1ccccc1C3=O (centres undefined)" result="0.973 µM"
compound=CC(=O)N1CCN(CCOc2ccc(C3CCN(C4=Nn5c(nnc5C(F)(F)F)CC4)CC3)cc2)CC1 result="> 100 µM"
compound=CC[C@H](NC(=O)[C@H](CS(=O)(=O)CC1CC1)N[C@@H](c1ccc(F)cc1)C(F)(F)F)C(=O)C(=O)NC1CC1 result="> 100 µM"
compound=O=C(O)C(=O)CBr result="> 100 µM"

====

Entries and their TGI values follow.
- Tested on: M14 melanoma
- Method summary: NCI tumour cell line growth inhibition, 384-well format
Property label: TGI (µM)

molecule=O=C(O)C(=O)CBr property_label=TGI relation_operator=> recorded_number=100
molecule="CC(=O)C1(O)Cc2c(O)c3c(c(O)c2C(OC2CC(N)C(O)C(C)O2)C1)C(=O)c1ccccc1C3=O (stereo not given)" property_label=TGI relation_operator== recorded_number=0.114
molecule=CC[C@H](NC(=O)[C@H](CS(=O)(=O)CC1CC1)N[C@@H](c1ccc(F)cc1)C(F)(F)F)C(=O)C(=O)NC1CC1 property_label=TGI relation_operator=> recorded_number=100
molecule=CC(=O)N1CCN(CCOc2ccc(C3CCN(C4=Nn5c(nnc5C(F)(F)F)CC4)CC3)cc2)CC1 property_label=TGI relation_operator=> recorded_number=100
molecule=Cn1ncc(-c2ccc3c(=O)[nH]nc(CN)c3c2)c1-c1c(F)cc2ccccc2c1C#N property_label=TGI relation_operator== recorded_number=8.76

====

- Test system: MDA-MB-468 breast
- Method summary: NCI tumour cell line growth inhibition, 384-well format; in the data active means GI50 below about 0.43 µM; inactive means the rest
Possible outcomes: active, inactive

compound=CC[C@H](NC(=O)[C@H](CS(=O)(=O)CC1CC1)N[C@@H](c1ccc(F)cc1)C(F)(F)F)C(=O)C(=O)NC1CC1 test_target="MDA-MB-468 breast" class_assignment=inactive
compound="CC(=O)C1(O)Cc2c(O)c3c(c(O)c2C(OC2CC(N)C(O)C(C)O2)C1)C(=O)c1ccccc1C3=O (centres undefined)" test_target="MDA-MB-468 breast" class_assignment=active
compound=O=C(O)C(=O)CBr test_target="MDA-MB-468 breast" class_assignment=inactive
compound=Cn1ncc(-c2ccc3c(=O)[nH]nc(CN)c3c2)c1-c1c(F)cc2ccccc2c1C#N test_target="MDA-MB-468 breast" class_assignment=inactive

====

Entries and their TGI values follow.
- System: MALME-3M melanoma
- Method summary: NCI tumour cell line growth inhibition, 384-well format
Property label: TGI (µM)

substance_smiles=CC[C@H](NC(=O)[C@H](CS(=O)(=O)CC1CC1)N[C@@H](c1ccc(F)cc1)C(F)(F)F)C(=O)C(=O)NC1CC1 units_of_measure=µM relation_operator=> recorded_number=100
substance_smiles=O=C(O)C(=O)CBr units_of_measure=µM relation_operator=> recorded_number=100
substance_smiles=CC(=O)N1CCN(CCOc2ccc(C3CCN(C4=Nn5c(nnc5C(F)(F)F)CC4)CC3)cc2)CC1 units_of_measure=µM relation_operator== recorded_number=75.2
substance_smiles=Cn1ncc(-c2ccc3c(=O)[nH]nc(CN)c3c2)c1-c1c(F)cc2ccccc2c1C#N units_of_measure=µM relation_operator== recorded_number=5.5
